Catalogue of compounds with associated DPPH IC50
# protocolText: DPPH radical scavenging activity
# Assay type: biochemical
# conditionParameters: isolated components; BHT positive control (Table 5)
Number only, in µg/mL; omit the unit.

Consider the compound Oc1cc(O)c2c(c1)O[C@H](c1ccc(O)c(O)c1)[C@H](O)C2 [Epicatechin, epicatechin] and give its measured DPPH IC50.
2.53

Subsequent entry: O=c1c(O[C@@H]2O[C@H](CO)[C@H](O)[C@H](O)[C@H]2O)c(-c2ccc(O)c(O)c2)oc2cc(O)cc(O)c12 [Hyperoside, hyperoside]
5.29

Subsequent entry: Cc1cc(C(C)(C)C)c(O)c(C(C)(C)C)c1 [BHT, Butylated hydroxytoluene, reference compound]
24.04

Subsequent entry: Oc1cc(O)c2c(c1)O[C@H](c1ccc(O)c(O)c1)[C@H](O)[C@H]2c1c(O)cc(O)c2c1O[C@H](c1ccc(O)c(O)c1)[C@H](O)C2 [Procyanidin B2, procyanidin B2]
2.81

====

# testedTarget: α-glucosidase (Saccharomyces cerevisiae)
# Construct: purchased Sigma-Aldrich
# Sequence (P53341 whole entry): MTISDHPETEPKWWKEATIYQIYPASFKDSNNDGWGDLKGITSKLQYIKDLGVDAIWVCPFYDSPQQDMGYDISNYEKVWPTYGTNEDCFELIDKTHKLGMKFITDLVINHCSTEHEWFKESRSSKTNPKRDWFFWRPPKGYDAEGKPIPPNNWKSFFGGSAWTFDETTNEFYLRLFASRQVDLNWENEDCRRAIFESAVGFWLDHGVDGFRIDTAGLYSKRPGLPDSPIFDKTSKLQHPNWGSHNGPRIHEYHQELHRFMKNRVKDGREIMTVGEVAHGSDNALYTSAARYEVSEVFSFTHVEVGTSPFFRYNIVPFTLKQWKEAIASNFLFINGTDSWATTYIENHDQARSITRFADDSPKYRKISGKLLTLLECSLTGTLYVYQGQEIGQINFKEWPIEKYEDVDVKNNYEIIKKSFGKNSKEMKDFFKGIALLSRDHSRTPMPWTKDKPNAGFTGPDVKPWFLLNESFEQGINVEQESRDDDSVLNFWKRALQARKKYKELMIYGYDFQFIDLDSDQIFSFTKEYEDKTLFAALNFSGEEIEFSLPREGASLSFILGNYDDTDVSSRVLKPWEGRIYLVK
# protocolText: biochemical
# Protocol: The inhibition assay of α-glucosidase was conducted using the conditions previously reported with slight modifications. The α-Glucosidase solution was diluted by 0.1 M sodium phosphate buffer (pH 6.8) to 1 U/mL. […] The IC50 values of all tested activities were determined by the linear regression of the percentage of remaining α-glucosidase against the sample concentration.
recordedEndpoint: IC50 (µM)
Number only, in µM; omit the unit.

| compound | observedResult |
| --- | --- |
| Oc1cc(O)c2c(c1)O[C@H](c1ccc(O)c(O)c1)[C@H](O)[C@H]2c1c(O)cc(O)c2c1O[C@H](c1ccc(O)c(O)c1)[C@H](O)C2 [Procyanidin B2, procyanidin B2] | 205 |

Now for a further compound.
Consider the compound O=c1c(O[C@@H]2O[C@H](CO)[C@H](O)[C@H](O)[C@H]2O)c(-c2ccc(O)c(O)c2)oc2cc(O)cc(O)c12 [Hyperoside, hyperoside] and give its measured IC50.
75.3
